The reader will find reported kon values listed item by item below.
- tested on: T1, human HER2 His6 protein, extracellular domain (NCBI NP_004439.2, Met 1-Thr 652), C-terminal polyhistidine tag (human, UniProt P04626 23-652)
- T1 construct: range 1-652; The stated range includes Met 1; also called HER2-ECD; human HER2-ECD
- run description: ForteBio OCTET R2, antibody captured on Protein A sensor, HER2 protein in solution, 25 °C
API: value field is a number in M⁻¹ s⁻¹; no unit string.

Name the reported kon value associated with the binder HER2 VHH-FC1 fusion protein 1-C09 (Fc fusion, 25; also called 1-C09-FC1; 1-C9-FC1) DVQLVESGGGLVQPGGSLRLSCEASGLTFRRYHFSWYRQPPGKERELVAVISDTGSTTNYTDSVKGRFTISRDLARNTVFLQLNSLKPDDTAVYYCNAKWPIIAADWWGQGTQVTVSSEPKSSDKTHTCPPCPAPEFEGGPSVFLFPPKPKDTLMISRTPEVTCVVVDVSHEDPEVKFNWYVDGVEVHNAKTKPREEQYNSTYRVVSVLTVLHQDWLNGKEYKCKVSNKALPASIEKTISKAKGQPREPQVYTLPPSRDELTKNQVSLTCLVKGFYPSDIAVEWESNGQPENNYKTTPPVLDSDGSFFLYSKLTVDKSRWQQGNVFSCSVMHEALHNHYTQKSLSLSPGK 974000

Try HER2 VHH-FC1 fusion protein 2-C07 (Fc fusion, 25; also called 2-C07-FC1; chimeric nanobody 2-C07) AVQLVESGGGLVQPGGSLRLSCAASGLTFMRYDINWYRQAPGKERELVAALDSSSGRTNYADFTEGRFTISRNNAKNSAYLQMNNLKPEDTASYYCNAQWKRIGADYWGQGTQVTVFSEPKSSDKTHTCPPCPAPEFEGGPSVFLFPPKPKDTLMISRTPEVTCVVVDVSHEDPEVKFNWYVDGVEVHNAKTKPREEQYNSTYRVVSVLTVLHQDWLNGKEYKCKVSNKALPASIEKTISKAKGQPREPQVYTLPPSRDELTKNQVSLTCLVKGFYPSDIAVEWESNGQPENNYKTTPPVLDSDGSFFLYSKLTVDKSRWQQGNVFSCSVMHEALHNHYTQKSLSLSPGK next. 338000

Then what about the binder HER2 VHH-FC1 fusion protein 1-C10 (Fc fusion, 25; also called 1-C10-FC1; chimeric nanobody 1-C10) QVQLVESGGDLVQPGGSLRLSCATSGLTFRRYELKWYRQAPGKERELVAGITPASGSRNYADSVKGRFTISRDDAKMTVYLQMNSLEPEDTAVYYCNAYWMIPQHIENNYWGKGTLVTVSSEPKSSDKTHTCPPCPAPEFEGGPSVFLFPPKPKDTLMISRTPEVTCVVVDVSHEDPEVKFNWYVDGVEVHNAKTKPREEQYNSTYRVVSVLTVLHQDWLNGKEYKCKVSNKALPASIEKTISKAKGQPREPQVYTLPPSRDELTKNQVSLTCLVKGFYPSDIAVEWESNGQPENNYKTTPPVLDSDGSFFLYSKLTVDKSRWQQGNVFSCSVMHEALHNHYTQKSLSLSPGK ? 217000

Please look at the following binder next.
Any idea what its kon is? The binder is HER2 VHH-FC1 fusion protein 1-B05 (Fc fusion, 25; also called 1-B05-FC1; chimeric nanobody 1-B05) AVQLVESGGGPGGSLRLSCAASGITFFRHTLGWYRQAPGKQRELVASITGGESTNYADSVKSRFTISRDNAKNMVFLQMNSLKPEDTALYYCNSKWDAAGVEFWGKGTLVTVSSEPKSSDKTHTCPPCPAPEFEGGPSVFLFPPKPKDTLMISRTPEVTCVVVDVSHEDPEVKFNWYVDGVEVHNAKTKPREEQYNSTYRVVSVLTVLHQDWLNGKEYKCKVSNKALPASIEKTISKAKGQPREPQVYTLPPSRDELTKNQVSLTCLVKGFYPSDIAVEWESNGQPENNYKTTPPVLDSDGSFFLYSKLTVDKSRWQQGNVFSCSVMHEALHNHYTQKSLSLSPGK 1.22e+06
